Assay: reductive metabolism of SR 4554 by mouse liver microsomes under hypoxia (HPLC)
Type: in vitro ADME
Conditions: mouse liver microsomes; read-out: Km of microsomal metabolism
Readout type: Km (µM)
A number alone suffices; assume µM.

What Km value was documented for this compound, O=C(Cn1ccnc1[N+](=O)[O-])NCC(O)C(F)(F)F (racemic) [SR 4554] ? 650

---

Assay: pharmacokinetics of SR 4554 in EMT-6 tumor-bearing mice (HPLC)
Format: in vivo, mouse
Conditions: mouse, tissue; limit of detection; 6 hours; read-out: tissue levels of drug at 6 hours
Readout type: concentration at 6 h

Please give the measured concentration at 6 h for this compound: O=C(Cn1ccnc1[N+](=O)[O-])NCC(O)C(F)(F)F (racemic) < 100 ng/g
